Below, each of the molecules is paired with its reported pIC50 value.
Assay target: adenosine A2B receptor (Homo sapiens (Human))
Sequence (P29275 whole entry): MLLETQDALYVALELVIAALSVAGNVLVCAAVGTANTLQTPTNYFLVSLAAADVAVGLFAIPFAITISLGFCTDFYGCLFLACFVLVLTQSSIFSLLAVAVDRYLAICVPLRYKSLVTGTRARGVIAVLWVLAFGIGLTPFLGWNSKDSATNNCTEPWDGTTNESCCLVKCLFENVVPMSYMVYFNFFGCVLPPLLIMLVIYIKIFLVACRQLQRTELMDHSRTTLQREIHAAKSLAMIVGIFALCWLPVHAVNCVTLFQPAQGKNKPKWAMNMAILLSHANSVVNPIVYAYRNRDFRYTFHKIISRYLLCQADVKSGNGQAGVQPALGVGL
Test name: Adenosine receptor activity assay (Table 1), A2B activity
Assay type: biochemical
Measurement conditions: read-out: Ave A2B cAMP IC50
pIC50: −log10 of the molar value.

Query (molecule): `C[C@H](Nc1nc(C(=O)N2CC[C@@H](O)C2)c2sccc2n1)c1cccnc1` ; field requested: pIC50
7.00 to 7.30

----------
Assay target: adenosine A2A receptor (Homo sapiens (Human), UniProt P29274)
Sequence (P29274 whole entry): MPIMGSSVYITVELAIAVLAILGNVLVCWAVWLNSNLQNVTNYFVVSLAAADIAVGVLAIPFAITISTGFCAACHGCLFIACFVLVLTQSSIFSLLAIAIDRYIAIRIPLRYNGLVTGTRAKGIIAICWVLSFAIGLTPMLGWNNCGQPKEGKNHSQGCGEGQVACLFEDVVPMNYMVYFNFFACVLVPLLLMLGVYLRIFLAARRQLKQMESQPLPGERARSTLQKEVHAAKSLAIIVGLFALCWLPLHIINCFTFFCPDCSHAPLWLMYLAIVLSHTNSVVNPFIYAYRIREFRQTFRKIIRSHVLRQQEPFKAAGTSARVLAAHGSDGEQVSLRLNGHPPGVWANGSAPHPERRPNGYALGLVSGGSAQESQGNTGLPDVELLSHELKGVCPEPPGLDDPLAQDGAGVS
Test name: Adenosine receptor activity assay (Table 1), A2A activity
Type: biochemical
Measurement conditions: read-out: Ave A2A cAMP IC50
pIC50: −log10 of the molar value.
In this section we review reported pIC50 values for a set of compounds.

Here are 3 compounds together with their reported answers.
Compound	Test result
Cc1cc2nc(N[C@@H](C)c3cncc(F)c3)nc(C(=O)NC[C@@H]3CCOC3)c2s1 [Example Z389]	< 6.30
C[C@H](Nc1nc(C(=O)N2CC(CNC(=O)N(C)C)C2)c2sccc2n1)c1cncc(F)c1 [Example Z577]	7.00 to 7.30
C[C@H](Nc1nc(C(=O)NCCC2CCCC2)c2sccc2n1)c1ccccn1 [Example Z424]	7.00 to 7.30

We next turn to a different compound, shown below.
Field request: pIC50 | item: Cc1cc2nc(N[C@@H](C)c3cccnc3)nc(C(=O)NC[C@H](C)O)c2s1 [Example Z328]
6.30 to 7.00
